I'd appreciate it if you could supply % Internalization values for the items below.
Molecular target: T1, MSR1 on differentiated THP-1 cells (Homo sapiens, UniProt P21757)
T1 construct: endogenous in cells; host or cells: THP-1 cells differentiated with PMA
T1 sequence (P21757 1-451): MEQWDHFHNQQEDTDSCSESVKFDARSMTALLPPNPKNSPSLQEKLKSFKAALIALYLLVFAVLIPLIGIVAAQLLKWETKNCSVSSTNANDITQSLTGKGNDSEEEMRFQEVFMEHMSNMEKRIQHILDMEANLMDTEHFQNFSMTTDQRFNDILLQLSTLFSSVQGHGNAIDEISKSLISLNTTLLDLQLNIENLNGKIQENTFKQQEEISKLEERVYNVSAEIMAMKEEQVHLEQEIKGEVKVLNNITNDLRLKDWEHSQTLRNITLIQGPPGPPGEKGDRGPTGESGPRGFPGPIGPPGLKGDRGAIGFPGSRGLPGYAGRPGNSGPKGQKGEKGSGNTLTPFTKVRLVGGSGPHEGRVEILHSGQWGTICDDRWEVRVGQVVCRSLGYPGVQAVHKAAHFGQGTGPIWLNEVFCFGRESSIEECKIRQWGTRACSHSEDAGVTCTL
Assay: Binding and internalization of cell-surface expressed MSR1 in differentiated THP-1 cells
Format: cell-based
Conditions: 10 μg/mL antibody
One number for each entry, in %.

Below, 4 molecules whose answers are already recorded.
- H1H21227N-N297Q: "modified versions of 21227N (H1H21227N-N297Q and H1H21227N-N297D)"; anti-MSR1 antibody "with a N297Q single point mutation" (antibody, V domains shown) VH: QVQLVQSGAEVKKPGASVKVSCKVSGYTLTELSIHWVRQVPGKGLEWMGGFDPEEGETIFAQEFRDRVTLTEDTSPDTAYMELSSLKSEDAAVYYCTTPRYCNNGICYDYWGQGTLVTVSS VL: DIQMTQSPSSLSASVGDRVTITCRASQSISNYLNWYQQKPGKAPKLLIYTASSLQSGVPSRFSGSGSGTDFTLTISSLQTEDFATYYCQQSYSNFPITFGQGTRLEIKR: 78.5
- H1H27754P-N297Q: one of "Twelve anti-MSR1 antibodies"; "made with an N297Q single point mutation in human Fcγ portion" (antibody, V domains shown) VH: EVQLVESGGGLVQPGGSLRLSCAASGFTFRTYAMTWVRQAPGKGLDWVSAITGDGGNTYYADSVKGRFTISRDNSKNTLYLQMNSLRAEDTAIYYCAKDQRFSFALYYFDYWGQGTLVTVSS VL: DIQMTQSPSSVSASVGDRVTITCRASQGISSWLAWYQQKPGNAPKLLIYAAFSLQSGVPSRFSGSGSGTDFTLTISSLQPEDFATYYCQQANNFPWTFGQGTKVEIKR: 90.0
- H1H27739P-N297Q: anti-MSR1 antibody "made with an N297Q single point mutation in human Fcγ portion" (antibody, V domains shown) VH: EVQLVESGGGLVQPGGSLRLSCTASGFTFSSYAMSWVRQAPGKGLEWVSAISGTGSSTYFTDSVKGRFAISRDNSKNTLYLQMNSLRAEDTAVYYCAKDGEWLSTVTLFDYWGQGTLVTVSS VL: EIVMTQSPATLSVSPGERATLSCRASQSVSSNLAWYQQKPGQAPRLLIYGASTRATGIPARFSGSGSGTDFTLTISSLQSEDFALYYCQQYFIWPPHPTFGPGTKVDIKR: 71.6
- H1H27729P-N297Q: anti-MSR1 antibody "made with an N297Q single point mutation in human Fcγ portion" (antibody, V domains shown) VH: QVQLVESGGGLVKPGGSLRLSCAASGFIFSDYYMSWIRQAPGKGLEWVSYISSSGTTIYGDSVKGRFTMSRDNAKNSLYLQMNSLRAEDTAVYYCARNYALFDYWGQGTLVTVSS VL: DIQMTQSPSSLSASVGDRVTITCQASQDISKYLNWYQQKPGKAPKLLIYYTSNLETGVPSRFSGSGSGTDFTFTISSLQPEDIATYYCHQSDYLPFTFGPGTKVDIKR: 57.0

Would you kindly look at the next entry?
Q: Write down % Internalization measured for item H1H27731P-N297Q: one of "Twelve anti-MSR1 antibodies"; "made with an N297Q single point mutation in human Fcγ portion" (antibody, V domains shown) VH: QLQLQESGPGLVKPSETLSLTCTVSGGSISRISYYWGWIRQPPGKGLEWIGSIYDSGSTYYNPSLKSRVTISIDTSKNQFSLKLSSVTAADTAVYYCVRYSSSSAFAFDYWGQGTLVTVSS VL: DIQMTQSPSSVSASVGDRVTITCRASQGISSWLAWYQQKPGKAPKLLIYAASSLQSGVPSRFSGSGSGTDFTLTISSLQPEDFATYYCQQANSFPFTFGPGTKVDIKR
A: 54.2
